molecular target: rNPFF1 (Rattus norvegicus, UniProt Q9EP86); assay: Binding affinity at cloned recombinant rat NPFF1 receptor
Sequence (Q9EP86 whole entry): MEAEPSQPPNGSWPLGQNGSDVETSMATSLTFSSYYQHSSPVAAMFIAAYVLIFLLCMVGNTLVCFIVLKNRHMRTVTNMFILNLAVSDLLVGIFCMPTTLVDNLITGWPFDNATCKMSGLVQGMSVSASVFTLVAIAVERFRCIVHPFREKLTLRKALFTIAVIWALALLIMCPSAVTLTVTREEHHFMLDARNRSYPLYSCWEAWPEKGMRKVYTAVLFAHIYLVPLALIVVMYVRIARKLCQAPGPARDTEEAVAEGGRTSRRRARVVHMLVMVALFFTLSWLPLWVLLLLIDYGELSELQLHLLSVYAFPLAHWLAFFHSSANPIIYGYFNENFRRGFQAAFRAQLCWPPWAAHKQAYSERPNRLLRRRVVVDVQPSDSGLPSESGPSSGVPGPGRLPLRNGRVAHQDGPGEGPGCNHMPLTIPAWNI
pKi: −log10 of the molar value.
RECORDED ENDPOINT: pKi

> print(dat)
                                    compound                               measured.on  quantitative.readout
 1             CCOc1ccc2c(C)nc(NC(=N)N)nc2c1  rNPFF1 (Rattus norvegicus, UniProt Q9EP86)                  6.18
 2         CCCCCCCc1ccc2nc(NC(=N)N)nc(C)c2c1  rNPFF1 (Rattus norvegicus, UniProt Q9EP86)                  6.10
 3       Cc1nc(NC(=N)N)nc2cc(OC(F)(F)F)ccc12  rNPFF1 (Rattus norvegicus, UniProt Q9EP86)                  6.88
 4        CCCCCCCCc1ccc2nc(NC(=N)N)nc(C)c2c1  rNPFF1 (Rattus norvegicus, UniProt Q9EP86)                  6.51
 5              COc1ccc2nc(NC(=N)N)cc(C)c2c1  rNPFF1 (Rattus norvegicus, UniProt Q9EP86)                  6.82
 6               Cc1ccc2nc(NC(=N)N)cc(C)c2c1  rNPFF1 (Rattus norvegicus, UniProt Q9EP86)                  7.52
 7         Cc1nc(NC(=N)N)nc2cc3c(cc12)C=CCC3  rNPFF1 (Rattus norvegicus, UniProt Q9EP86)                  6.84
 8          CCCCCCc1ccc2nc(NC(=N)N)cc(C)c2c1  rNPFF1 (Rattus norvegicus, UniProt Q9EP86)                  6.27
 9       Cc1cc(NC(=N)N)nc2ccc(-c3ccccc3)cc12  rNPFF1 (Rattus norvegicus, UniProt Q9EP86)                  6.75
10              Cc1cc(NC(=N)N)nc2ccc(Cl)cc12  rNPFF1 (Rattus norvegicus, UniProt Q9EP86)                  7.60
11  Cc1nc(NC(=N)N)nc2cc(C(C)O)ccc12 (centres unmarked)  rNPFF1 (Rattus norvegicus, UniProt Q9EP86)                  6.07
12               Cc1ccc2c(C)cc(NC(=N)N)nc2c1  rNPFF1 (Rattus norvegicus, UniProt Q9EP86)                  8.15
13               Cc1ccc2c(C)nc(NC(=N)N)nc2c1  rNPFF1 (Rattus norvegicus, UniProt Q9EP86)                  7.30
14              Cc1nc(NC(=N)N)nc2ccc(Br)cc12  rNPFF1 (Rattus norvegicus, UniProt Q9EP86)                  6.10
15           Cc1nc(NC(=N)N)nc2cc3c(cc12)CCC3  rNPFF1 (Rattus norvegicus, UniProt Q9EP86)                  7.02
16              Cc1cc2nc(NC(=N)N)nc(C)c2cc1C  rNPFF1 (Rattus norvegicus, UniProt Q9EP86)                  7.38
17          Cc1nc(NC(=N)N)nc2cc(OC(C)C)ccc12  rNPFF1 (Rattus norvegicus, UniProt Q9EP86)                  6.60
18              Cc1nc(NC(=N)N)nc2ccc(Cl)cc12  rNPFF1 (Rattus norvegicus, UniProt Q9EP86)                  6.48
19           CCCCOc1ccc2nc(NC(=N)N)nc(C)c2c1  rNPFF1 (Rattus norvegicus, UniProt Q9EP86)                  6.13
20           Cc1nc(NC(=N)N)nc2cc(C(C)C)ccc12  rNPFF1 (Rattus norvegicus, UniProt Q9EP86)                  7.25
